Numbers sourced from patent US3984415A.

# protocol_summary: Anti-inflammatory effect (carrageenin edema of hind paw)
# Format: in vivo, Wistar-strain male rats
# measurement_setup: Rattus norvegicus, po; dose 50 mg/kg, orally, rats, 3 hours; read-out: anti-inflammatory effect (inhibition percentage of carrageenin edema)
Form field: inhibition in vivo at 50 mg/kg (one value per entry).

Example entries begin here.
entry_smiles | inhibition in vivo at 50 mg/kg
O=c1c2cccnc2n(-c2cccc([N+](=O)[O-])c2)c(=O)n1CC1CC1 | > 61%
CCn1c(=O)c2cccnc2n(-c2cccc([N+](=O)[O-])c2)c1=S | 46 to 60%
CC(C)Cn1c(=O)c2cccnc2n(-c2cccc([N+](=O)[O-])c2)c1=O | 31 to 45%
O=c1c2cccnc2n(-c2cccc([N+](=O)[O-])c2)c(=O)n1CC(F)(F)F | 46 to 60%
Cn1c(=O)c2cccnc2n(-c2cccc([N+](=O)[O-])c2)c1=O | > 61%

Documented inhibition in vivo at 50 mg/kg of CC(C)=CCn1c(=O)c2cccnc2n(-c2cccc([N+](=O)[O-])c2)c1=O : > 61%

----------
# protocol_summary: Anti-inflammatory effect (carrageenin edema of hind paw)
# Type: in vivo, Wistar-strain male rats
# measurement_setup: Rattus norvegicus, po; dose 50 mg/kg, orally, rats, 3 hours; read-out: anti-inflammatory effect (inhibition percentage of carrageenin edema)
readout_type: inhibition in vivo at 50 mg/kg

These solved cases illustrate the format of a correct answer.
entry_smiles | inhibition in vivo at 50 mg/kg
CC(C)n1c(=O)c2cccnc2n(-c2cccc([N+](=O)[O-])c2)c1=O | 46 to 60%
O=c1c2cccnc2n(-c2cccc([N+](=O)[O-])c2)c(=S)n1CC(F)(F)F | 46 to 60%
CCOCCn1c(=O)c2cccnc2n(-c2cccc([N+](=O)[O-])c2)c1=O | 46 to 60%
CC(=O)OCCn1c(=O)c2cccnc2n(-c2cccc([N+](=O)[O-])c2)c1=O | 16 to 30%

Record summary for O=c1c2cccnc2n(-c2cccc([N+](=O)[O-])c2)c(=O)n1CCO : reported inhibition in vivo at 50 mg/kg = 31 to 45%
